Target: Signal peptidase I (Escherichia coli K-12)
Experiment: Inhibition of Escherichia coli type 1 signal peptidase lepB assessed as residual activity at 0.0098 uM preincubated for 10 mins followed by Dabcyl-VGGTATAYGAFSRPGLE-(EDANS)-OH substrate addition measured after 2 hrs by FRET based assay (reference value: 100%)
Square brackets hold non-standard residues; d marks the D form. Peptide text beside a SMILES is read from it. * marks the point of attachment. Benzoyl(4-(4-hexylphenyl)) = CCCCCCc1ccc(-c2ccc(C(=O)*)cc2)cc1; X1 = C[C@H](N*)B1OC2C[C@@H]3C[C@@H](C3(C)C)[C@]2(C)O1; boroAla = C[C@H](N*)B(O)O; Orn = NCCC[C@H](N)C(=O)O
readoutType: Activity (%)

[
  {
    "compound": "CCCCCCc1ccc(-c2ccc(C(=O)N[C@@H](CCCN)C(=O)N[C@H](C(=O)N[C@@H](C)C(=O)N[C@@H](CC(N)=O)C(=O)N[C@@H](C)B3OC4C[C@@H]5C[C@@H](C5(C)C)[C@]4(C)O3)[C@@H](C)O)cc2)cc1 (stereo partly drawn) ({Benzoyl(4-(4-hexylphenyl))}-[Orn]TAN-X1)",
    "unitsSymbol": "%",
    "experimentalResult": 70.6
  },
  {
    "compound": "CCCCCCc1ccc(-c2ccc(C(=O)N[C@@H](CCCN)C(=O)N(C)[C@H](C(=O)N[C@@H](C)C(=O)N[C@H]3Cc4cn(nn4)CCCN4C[C@@H]5OB(O[C@@H]5C4)[C@H](C)NC3=O)[C@@H](C)O)cc2)cc1",
    "unitsSymbol": "%",
    "experimentalResult": 88.1
  },
  {
    "compound": "CCCCCCc1ccc(-c2nc3cc(C(=O)N[C@@H](CCCN)C(=O)N[C@H](C(=O)N[C@@H](C)C(=O)N[C@H]4Cc5cn(nn5)CCO[C@@H]5C[C@@H]6OB(O[C@@H]6C5)[C@H](C)NC4=O)[C@@H](C)O)ccc3[nH]2)cc1",
    "unitsSymbol": "%",
    "experimentalResult": 86.3
  },
  {
    "compound": "C[C@@H]1NC(=O)[C@@H](NC(=O)[C@H](C)NC(=O)[C@@H](NC(=O)[C@H](CCCN)NC(=O)c2ccc(=O)n(-c3ccccc3)c2)[C@@H](C)O)Cc2cn(nn2)CCO[C@@H]2C[C@@H]3OB1O[C@@H]3C2",
    "unitsSymbol": "%",
    "experimentalResult": 101
  },
  {
    "compound": "CCCCCCc1ccc(-c2ccc(C(=O)N[C@@H](Cc3cnc[nH]3)C(=O)N[C@H](C(=O)N[C@@H](C)C(=O)N[C@H]3Cc4cn(nn4)CCCN4C[C@@H]5OB(O[C@@H]5C4)[C@H](C)NC3=O)[C@@H](C)O)cc2)cc1",
    "unitsSymbol": "%",
    "experimentalResult": 91.4
  },
  {
    "compound": "CCCCCCc1ccc(-n2cc(C(=O)N[C@@H](CCCN)C(=O)N[C@H](C(=O)N[C@@H](C)C(=O)N[C@H]3Cc4cn(nn4)CCO[C@@H]4C[C@@H]5OB(O[C@@H]5C4)[C@H](C)NC3=O)[C@@H](C)O)ccc2=O)cc1",
    "unitsSymbol": "%",
    "experimentalResult": 98.8
  },
  {
    "compound": "CCCCCCC#Cc1cncc(C(=O)N[C@@H](CCCN)C(=O)N[C@H](C(=O)N[C@@H](C)C(=O)N[C@H]2Cc3cn(nn3)CCO[C@@H]3C[C@@H]4OB(O[C@@H]4C3)[C@H](C)NC2=O)[C@@H](C)O)c1",
    "unitsSymbol": "%",
    "experimentalResult": 82.7
  },
  {
    "compound": "CCCCCCc1ccc(-c2ccc(C(=O)N[C@@H](CCCN)C(=O)N[C@H](C(=O)N[C@@H](C)C(=O)N[C@@H](CC(N)=O)C(=O)N[C@@H](C)B(O)O)[C@@H](C)O)cc2)cc1 ({Benzoyl(4-(4-hexylphenyl))}-[Orn]TAN-boroAla)",
    "unitsSymbol": "%",
    "experimentalResult": 89.3
  }
]

* * *

Tested on: Escherichia coli
Assay: Antibacterial activity against Escherichia coli D22 CGSG 5163 harboring Ips mutant after 16 to 20 hrs by broth microdilution method
Format: functional
readoutType: MIC (µg/mL)

[
  {
    "querySmiles": "CCCCCCc1ccc(-n2cc(C(=O)N[C@@H](CCCN)C(=O)N[C@H](C(=O)N[C@@H](C)C(=O)N[C@H]3Cc4cn(nn4)CCO[C@@H]4C[C@@H]5OB(O[C@@H]5C4)[C@H](C)NC3=O)[C@@H](C)O)ccc2=O)cc1",
    "inequalitySign": ">",
    "experimentalResult": 64
  },
  {
    "querySmiles": "CCCCCCc1ccc(-c2ccc(C(=O)N[C@@H](CCCNC(=N)N)C(=O)N[C@H](C(=O)N[C@@H](C)C(=O)N[C@H]3Cc4cn(nn4)CCCN4C[C@@H]5OB(O[C@@H]5C4)[C@H](C)NC3=O)[C@@H](C)O)cc2)cc1",
    "inequalitySign": "=",
    "experimentalResult": 8
  },
  {
    "querySmiles": "CCCCCCc1ccc(-c2nc3cc(C(=O)N[C@@H](CCCN)C(=O)N[C@H](C(=O)N[C@@H](C)C(=O)N[C@H]4Cc5cn(nn5)CCO[C@@H]5C[C@@H]6OB(O[C@@H]6C5)[C@H](C)NC4=O)[C@@H](C)O)ccc3[nH]2)cc1",
    "inequalitySign": "=",
    "experimentalResult": 64
  },
  {
    "querySmiles": "C[C@@H]1NC(=O)[C@@H](NC(=O)[C@H](C)NC(=O)[C@@H](NC(=O)[C@H](CCCN)NC(=O)c2ccc(-c3ccccc3)cc2)[C@@H](C)O)Cc2cn(nn2)CCO[C@@H]2C[C@@H]3OB1O[C@@H]3C2",
    "inequalitySign": ">",
    "experimentalResult": 64
  }
]

* * *

Tested on: Escherichia coli
Assay: Antibacterial activity against Escherichia coli ATCC 25922 after 16 to 20 hrs by broth microdilution method
Type: functional
readoutType: MIC

[
  {
    "querySmiles": "CCCCCCc1ccc(-c2c[nH]c3ccc(C(=O)N[C@@H](CCCN)C(=O)N[C@H](C(=O)N[C@@H](C)C(=O)N[C@H]4Cc5cn(nn5)CCO[C@@H]5C[C@@H]6OB(O[C@@H]6C5)[C@H](C)NC4=O)[C@@H](C)O)cc23)cc1",
    "experimentalResult": "32 µg/mL"
  },
  {
    "querySmiles": "CCCCCCC#Cc1cncc(C(=O)N[C@@H](CCCN)C(=O)N[C@H](C(=O)N[C@@H](C)C(=O)N[C@H]2Cc3cn(nn3)CCO[C@@H]3C[C@@H]4OB(O[C@@H]4C3)[C@H](C)NC2=O)[C@@H](C)O)c1",
    "experimentalResult": "> 64 µg/mL"
  },
  {
    "querySmiles": "CCCCCCc1ccc(-c2nc3cc(C(=O)N[C@@H](CCCN)C(=O)N[C@H](C(=O)N[C@@H](C)C(=O)N[C@H]4Cc5cn(nn5)CCO[C@@H]5C[C@@H]6OB(O[C@@H]6C5)[C@H](C)NC4=O)[C@@H](C)O)ccc3[nH]2)cc1",
    "experimentalResult": "> 64 µg/mL"
  }
]

* * *

Target: Signal peptidase I (Escherichia coli K-12) (UniProt P00803)
Sequence (P00803 whole entry): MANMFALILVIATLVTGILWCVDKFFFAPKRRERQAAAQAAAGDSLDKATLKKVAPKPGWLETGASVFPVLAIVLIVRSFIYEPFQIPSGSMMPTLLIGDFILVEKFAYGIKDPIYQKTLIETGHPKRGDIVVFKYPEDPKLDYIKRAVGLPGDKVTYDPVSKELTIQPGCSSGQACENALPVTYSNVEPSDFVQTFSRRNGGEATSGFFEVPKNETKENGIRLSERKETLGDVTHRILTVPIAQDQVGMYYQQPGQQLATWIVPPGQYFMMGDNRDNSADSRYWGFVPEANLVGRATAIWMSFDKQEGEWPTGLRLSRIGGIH
Experiment: Inhibition of Escherichia coli type 1 signal peptidase lepB assessed as residual activity at 0.0781 uM preincubated for 10 mins followed by Dabcyl-VGGTATAYGAFSRPGLE-(EDANS)-OH substrate addition measured after 2 hrs by FRET based assay (reference value: 100%)
Square brackets hold non-standard residues; d marks the D form. Peptide text beside a SMILES is read from it. * marks the point of attachment. Benzoyl(4-(4-hexylphenyl)) = CCCCCCc1ccc(-c2ccc(C(=O)*)cc2)cc1; X1 = C[C@H](N*)B1OC2C[C@@H]3C[C@@H](C3(C)C)[C@]2(C)O1; boroAla = C[C@H](N*)B(O)O; Orn = NCCC[C@H](N)C(=O)O
The entries below are paired with their reported Activity.

[
  {
    "compound": "C[C@@H]1NC(=O)[C@@H](NC(=O)[C@H](C)NC(=O)[C@@H](NC(=O)[C@H](CCCN)NC(=O)c2ccc(=O)n(-c3ccccc3)c2)[C@@H](C)O)Cc2cn(nn2)CCO[C@@H]2C[C@@H]3OB1O[C@@H]3C2",
    "Activity / %": 100
  },
  {
    "compound": "CCCCCCc1ccc(-c2ccc(C(=O)N[C@@H](CCCNC(=N)N)C(=O)N[C@H](C(=O)N[C@@H](C)C(=O)N[C@H]3Cc4cn(nn4)CCCN4C[C@@H]5OB(O[C@@H]5C4)[C@H](C)NC3=O)[C@@H](C)O)cc2)cc1",
    "Activity / %": 46.5
  },
  {
    "compound": "CCCCCCc1ccc(-c2nc3cc(C(=O)N[C@@H](CCCN)C(=O)N[C@H](C(=O)N[C@@H](C)C(=O)N[C@H]4Cc5cn(nn5)CCO[C@@H]5C[C@@H]6OB(O[C@@H]6C5)[C@H](C)NC4=O)[C@@H](C)O)ccc3[nH]2)cc1",
    "Activity / %": 16.5
  },
  {
    "compound": "CCCCCCc1ccc(-c2ccc(C(=O)N[C@@H](CCCN)C(=O)N[C@H](C(=O)N[C@@H](C)C(=O)N[C@@H](CC(N)=O)C(=O)N[C@@H](C)B3OC4C[C@@H]5C[C@@H](C5(C)C)[C@]4(C)O3)[C@@H](C)O)cc2)cc1 (stereo partly drawn) ({Benzoyl(4-(4-hexylphenyl))}-[Orn]TAN-X1)",
    "Activity / %": 20.5
  },
  {
    "compound": "CCCCCCc1ccc(-c2ccc(C(=O)N[C@@H](CCCN)C(=O)N[C@H](C(=O)N[C@@H](C)C(=O)N[C@H]3Cc4cn(nn4)CCO[C@@H]4C[C@@H]5OB(O[C@@H]5C4)[C@H](C)NC3=O)[C@@H](C)O)cc2)cc1",
    "Activity / %": 65.2
  },
  {
    "compound": "CCCCCCc1ccc(-c2ccc(C(=O)N[C@@H](CCCN)C(=O)N[C@H](C(=O)N[C@@H](C)C(=O)N[C@@H](CC(N)=O)C(=O)N[C@@H](C)B(O)O)[C@@H](C)O)cc2)cc1 ({Benzoyl(4-(4-hexylphenyl))}-[Orn]TAN-boroAla)",
    "Activity / %": 25.7
  },
  {
    "compound": "CCCCCCc1ccc(-c2ccc(C(=O)N[C@@H](CCCN)C(=O)N[C@H](C(=O)N[C@@H](C)C(=O)N[C@H]3Cc4cn(nn4)CCCN4C[C@@H]5OB(O[C@@H]5C4)[C@H](C)NC3=O)[C@@H](C)O)cc2)cc1",
    "Activity / %": 42.8
  },
  {
    "compound": "CCCCCCc1ccc(-c2c[nH]c3ccc(C(=O)N[C@@H](CCCN)C(=O)N[C@H](C(=O)N[C@@H](C)C(=O)N[C@H]4Cc5cn(nn5)CCO[C@@H]5C[C@@H]6OB(O[C@@H]6C5)[C@H](C)NC4=O)[C@@H](C)O)cc23)cc1",
    "Activity / %": 78.1
  },
  {
    "compound": "CCCCCCc1ccc(-c2ccc(C(=O)N[C@@H](Cc3cnc[nH]3)C(=O)N[C@H](C(=O)N[C@@H](C)C(=O)N[C@H]3Cc4cn(nn4)CCCN4C[C@@H]5OB(O[C@@H]5C4)[C@H](C)NC3=O)[C@@H](C)O)cc2)cc1",
    "Activity / %": 66.2
  },
  {
    "compound": "CCCCCCc1ccc(-c2ccc(C(=O)N[C@@H](CCCN)C(=O)N(C)[C@H](C(=O)N[C@@H](C)C(=O)N[C@H]3Cc4cn(nn4)CCCN4C[C@@H]5OB(O[C@@H]5C4)[C@H](C)NC3=O)[C@@H](C)O)cc2)cc1",
    "Activity / %": 52.1
  },
  {
    "compound": "C[C@@H]1NC(=O)[C@@H](NC(=O)[C@H](C)NC(=O)[C@@H](NC(=O)[C@H](CCCN)NC(=O)c2ccc(-c3ccccc3)cc2)[C@@H](C)O)Cc2cn(nn2)CCO[C@@H]2C[C@@H]3OB1O[C@@H]3C2",
    "Activity / %": 48.6
  },
  {
    "compound": "C[C@@H]1NC(=O)[C@@H](NC(=O)[C@H](C)NC(=O)[C@@H](NC(=O)[C@H](CCCN)NC(=O)C#Cc2ccc(-c3ccccc3)cc2)[C@@H](C)O)Cc2cn(nn2)CCO[C@@H]2C[C@@H]3OB1O[C@@H]3C2",
    "Activity / %": 73.1
  },
  {
    "compound": "CCCCCCc1ccc(-n2cc(C(=O)N[C@@H](CCCN)C(=O)N[C@H](C(=O)N[C@@H](C)C(=O)N[C@H]3Cc4cn(nn4)CCO[C@@H]4C[C@@H]5OB(O[C@@H]5C4)[C@H](C)NC3=O)[C@@H](C)O)ccc2=O)cc1",
    "Activity / %": 95.3
  }
]
